experiment: in vivo; conditions: dog, po, 5 mg/kg
Measurement Kind: bioavailability at 24 h (%)
Numbers only, in %.

Data request, read-out bioavailability at 24 h, for `N#C[C@@]1(c2ccc3c(N)ncnn23)O[C@H](CO)[C@@H](O)[C@H]1O`
89

* * *

assay: Cmax in cynomolgus monkey assessed as prodrug conversion by measuring (2R,3R,4S,5R)-2-(4-aminopyrrolo[2,1-f][1,2,4]triazin-7-yl)-3,4-dihydroxy-5-(hydroxymethyl)tetrahydrofuran-2-carbonitrile at 11.7 mg/kg, po measured upto 24 hrs by LC-MS/MS analysis; assay type: ADME, organism-based, Macaca fascicularis; design: time < 24 hrs, dose 11.7 mg/kg, route po; details: in vivo
Measurement Kind: Cmax (µM)
Give bare numbers, in µM.

Field request: Cmax | item: `CC(C)C(=O)OC[C@H]1O[C@@](C#N)(c2ccc3c(N)ncnn23)[C@H](O)[C@@H]1O`
7.57
